Target: Replicase polyprotein 1ab (Severe acute respiratory syndrome coronavirus 2)
Experiment: Inhibition of SARS-CoV-2 RdRp
measure.name: pIC50
Keep in mind that pIC50 stands for -log10 of concentration in molar terms.

compound | pIC50
OC1CCN(C(=S)SSCc2ccccc2)CC1 | 4.67
COC(=O)C1CCCN1C(=S)SSc1ccccc1 (configuration not stated) | 4.24
S=C(SSC(=S)N1CCCC1)N1CCCC1 [BIS(PYRROLIDINYLTHIOCARBONYL)DISULFIDE] | 5.05
O=[N+]([O-])c1ccc(SSC(=S)N2CCC(O)CC2)cc1 | 4.34
Oc1ccc(SSC(=S)N2CCC(O)CC2)cc1 | 4.01

Query: // pIC50 lookup, key: COc1ccc(SSC(=S)N2CCC(O)CC2)cc1
Response: 5.07

Query: Fill in the blank: the reported pIC50 of S=C(SSC(=S)N1CCCCC1)N1CCCCC1 [BIS(PIPERIDINYLTHIOCARBONYL)DISULFIDE] is ____.
Response: 4.99

Query: Please look up its pIC50: OC1CCN(C(=S)SSc2ccc(C(F)(F)F)cc2)CC1
Response: 4.80

Query: GET /values?readout=pIC50&item= S=C(SSC(=S)N1CCOCC1)N1CCOCC1
Response: 4.27

Query: Given OC1CCN(C(=S)SSC(=S)N2CCC(O)CC2)CC1 , state its recorded pIC50.
Response: 4.08

Query: Reported pIC50, compound S=C(SSc1ccccc1)N1CCCC1 : ____
Response: 4.92

Query: Return reported pIC50; argument: OC1CCN(C(=S)SSc2ccc(F)cc2)CC1
Response: 5.01

----------
System: Vero C1008
Test: Cytotoxicity against African green monkey Vero E6 cells at 1 mM incubated for 24 hrs by CCK-8 method
Type: toxicity, cell-based
Settings: chlorocebus sabaeus, vero c1008, 24 h, 1000 µM
measure.name: Activity

chemical.string | Activity
COc1ccc(SSC(=S)N2CCC(O)CC2)cc1 | Toxic
OC1CCN(C(=S)SSc2ccc(C(F)(F)F)cc2)CC1 | Toxic
Oc1ccc(SSC(=S)N2CCC(O)CC2)cc1 | Toxic
OC1CCN(C(=S)SSc2ccccc2)CC1 | Toxic
OC1CCN(C(=S)SSC(=S)N2CCC(O)CC2)CC1 | Toxic
COC(=O)CCSSC(=S)N1CCC(O)CC1 | Toxic
O=[N+]([O-])c1ccc(SSC(=S)N2CCC(O)CC2)cc1 | Toxic

// switching to the query compound
Query: Query for Vero C1008: what Activity does the record show for OC1CCN(C(=S)SSc2ccc(F)cc2)CC1 ?
Response: Toxic

----------
Target: Replicase polyprotein 1ab (Severe acute respiratory syndrome coronavirus 2)
Assay: Inhibition of SARS-CoV-2 PL protease
pIC50: −log10 of the molar value.
Tag: YES if measured pIC50 is not below 6, NO if it is.

Worked examples follow.
compound | category
S=C(SSC(=S)N1CCCC1)N1CCCC1 [BIS(PYRROLIDINYLTHIOCARBONYL)DISULFIDE] | YES
OC1CCN(C(=S)SSc2ccc(C(F)(F)F)cc2)CC1 | YES
S=C(SSC(=S)N1CCOCC1)N1CCOCC1 | YES

Attention now turns to another entry.
Query: Given the entry OC1CCN(C(=S)SSc2ccc(F)cc2)CC1 , answer whether its pIC50 meets or surpasses 6.
Response: YES
